The reported numbers originate from patent US20250163167A1.

# Tested Target: T1, human IL-10 receptor (hIL-10R alpha and beta chains) on HEK-Blue IL-10 reporter cells (human, UniProt Q13651 22-578; Q08334 20-325)
# T1 sequence 1: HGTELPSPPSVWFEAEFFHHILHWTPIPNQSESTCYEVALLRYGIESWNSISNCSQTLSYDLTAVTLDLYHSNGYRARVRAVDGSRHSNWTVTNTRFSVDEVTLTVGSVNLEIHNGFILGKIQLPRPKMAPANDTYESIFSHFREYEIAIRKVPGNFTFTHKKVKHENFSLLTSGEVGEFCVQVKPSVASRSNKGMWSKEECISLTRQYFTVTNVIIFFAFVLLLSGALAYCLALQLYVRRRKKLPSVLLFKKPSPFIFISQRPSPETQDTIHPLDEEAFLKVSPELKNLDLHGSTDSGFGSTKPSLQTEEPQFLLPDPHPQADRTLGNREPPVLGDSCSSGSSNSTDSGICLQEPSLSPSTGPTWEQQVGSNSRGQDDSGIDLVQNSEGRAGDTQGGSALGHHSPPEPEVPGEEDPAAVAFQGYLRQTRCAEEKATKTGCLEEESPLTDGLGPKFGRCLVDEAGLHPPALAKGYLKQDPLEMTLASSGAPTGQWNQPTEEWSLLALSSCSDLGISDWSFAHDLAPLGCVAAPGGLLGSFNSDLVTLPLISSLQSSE
# T1 sequence 2: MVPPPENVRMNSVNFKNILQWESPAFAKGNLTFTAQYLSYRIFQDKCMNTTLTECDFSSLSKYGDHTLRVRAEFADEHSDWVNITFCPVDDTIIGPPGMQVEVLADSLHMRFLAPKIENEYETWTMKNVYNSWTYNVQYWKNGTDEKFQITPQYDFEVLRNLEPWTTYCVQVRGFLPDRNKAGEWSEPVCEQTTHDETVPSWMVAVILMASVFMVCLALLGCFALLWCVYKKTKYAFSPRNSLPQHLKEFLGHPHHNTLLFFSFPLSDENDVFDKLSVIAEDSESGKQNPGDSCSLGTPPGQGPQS
# Test Protocol: cell-based or functional assay
Experimental Readout: Abs 630 (25 nM) (Abs 630)
One number for each entry, in Abs 630.

Value lookup for Abs 630 (25 nM); key = IL10R binding molecule of SEQ ID NO: 334 (bispecific antibody) QVQLQESGGGSVEAGGSLRLSCAASGYTHSSYCMGWFRQAPGKEREGVAAIDVDGSTTYADSVKGRFTISKDNAKNTLYLQMNSLKPEDTGMYYCAAEFADCSSNYFLPPGAVRYWGQGTQVTVSSGGGSQVQLQESGGGSVQAGGSLRLSCAASRFTYSSYCMGWFRQAPGKEREGVASIDSDGSTSYTDSVKGRFTISKDNAKNTLYLQMNSLKPEDTAMYYCALDLMSTVVPGFCGFLLSAGMDYWGKGTQVTVSSASHHHHHH
1.43
